TGT: ATP-dependent translocase ABCB1 (Homo sapiens)
Sequence (P08183 whole entry): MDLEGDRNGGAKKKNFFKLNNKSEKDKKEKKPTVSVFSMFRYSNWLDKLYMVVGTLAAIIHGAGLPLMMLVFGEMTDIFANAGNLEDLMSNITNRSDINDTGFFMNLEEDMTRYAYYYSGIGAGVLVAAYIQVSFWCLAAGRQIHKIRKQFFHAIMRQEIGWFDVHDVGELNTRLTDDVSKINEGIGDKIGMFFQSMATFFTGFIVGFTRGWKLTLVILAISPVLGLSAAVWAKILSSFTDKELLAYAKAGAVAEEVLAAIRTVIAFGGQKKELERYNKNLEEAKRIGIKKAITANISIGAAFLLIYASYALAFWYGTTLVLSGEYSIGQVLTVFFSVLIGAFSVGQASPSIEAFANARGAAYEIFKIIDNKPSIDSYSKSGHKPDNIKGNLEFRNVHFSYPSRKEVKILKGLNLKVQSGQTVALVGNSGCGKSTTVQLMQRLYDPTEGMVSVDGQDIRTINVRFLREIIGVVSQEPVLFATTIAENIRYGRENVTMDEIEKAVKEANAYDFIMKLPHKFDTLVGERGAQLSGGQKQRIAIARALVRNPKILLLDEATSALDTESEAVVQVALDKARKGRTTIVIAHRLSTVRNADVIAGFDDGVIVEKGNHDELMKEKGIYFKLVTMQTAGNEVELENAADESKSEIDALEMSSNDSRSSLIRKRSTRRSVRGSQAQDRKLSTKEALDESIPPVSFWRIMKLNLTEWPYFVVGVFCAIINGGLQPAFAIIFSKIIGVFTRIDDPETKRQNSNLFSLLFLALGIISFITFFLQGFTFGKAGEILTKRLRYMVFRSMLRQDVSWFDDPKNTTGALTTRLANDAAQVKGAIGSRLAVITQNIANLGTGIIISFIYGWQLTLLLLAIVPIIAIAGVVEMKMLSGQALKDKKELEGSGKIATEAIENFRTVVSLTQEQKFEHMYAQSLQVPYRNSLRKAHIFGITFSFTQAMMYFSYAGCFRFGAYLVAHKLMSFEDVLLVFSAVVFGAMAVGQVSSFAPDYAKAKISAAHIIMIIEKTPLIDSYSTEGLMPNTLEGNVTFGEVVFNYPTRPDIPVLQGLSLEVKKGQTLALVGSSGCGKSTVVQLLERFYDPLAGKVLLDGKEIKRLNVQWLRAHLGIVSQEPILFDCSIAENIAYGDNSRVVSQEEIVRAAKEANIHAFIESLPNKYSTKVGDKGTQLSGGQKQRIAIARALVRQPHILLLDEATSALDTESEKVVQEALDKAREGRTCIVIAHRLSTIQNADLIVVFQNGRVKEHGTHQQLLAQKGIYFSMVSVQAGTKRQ
TEST_SUMMARY: TP_TRANSPORTER: transepithelial transport in MDR1-expressing MDCK cells
Assay type: functional, cell-based
RUN_PARAMETERS: dog

MOLECULE	Activity
C[C@]12CC[C@@H]3c4ccc(O)cc4CC[C@H]3[C@@H]1CCC2=O	substrate [+]
C#C[C@]1(O)CC[C@H]2[C@@H]3CCC4=CC(=O)CC[C@@H]4[C@H]3CC[C@@]21C	is not a substrate [-]
C[C@]12CC[C@@H]3c4ccc(O)cc4CC[C@H]3[C@@H]1C[C@@H](O)[C@@H]2O	substrate [+]
C[C@]12CC[C@@H]3c4ccc(O)cc4CC[C@H]3[C@@H]1CC[C@@H]2O	is not a substrate [-]
C#C[C@]1(O)CC[C@H]2[C@@H]3CCc4cc(O)ccc4[C@H]3CC[C@@]21C	substrate [+]
CC(=O)[C@H]1CC[C@H]2[C@@H]3CCC4=CC(=O)CC[C@]4(C)[C@H]3CC[C@]12C	is not a substrate [-]

Origin of measurements: ChEMBL document CHEMBL2074085
